Test system: endopeptidase
procedure-details: Effect of potential inhibitors (chemical agents) on the endopeptidase activity (metenkaphalin hydrolysis, TLC)
Type: biochemical, L. lactis subsp. cremoris Wg2
Set-up: key: +: Inhibition; -: No inhibition detectable
condition-label: 1 mM chemical agent, purified enzyme 4 µg protein preincubated 10 min at 20°C; metenkaphalin 15 min at 30°C; TLC
assay-endpoint: Inhibition

molecule: CCOC(=O)OC(=O)OCC [DEPC]
Inhibition: -
--
molecule: c1cnc2c(c1)ccc1cccnc12 [1,10-phenanthroline]
Inhibition: +
--
molecule: O[C@H](CS)[C@H](O)CS (racemic) [DTT, dithiothreitol]
Inhibition: -
--
molecule: N[C@@H](CSSC[C@H](N)C(=O)O)C(=O)O [Cystine]
Inhibition: -

Now let's try a different one.
Enquiry: Entry OCCS [β-Mercaptoethanol] : reported Inhibition = ?
Return: +
